Field: IC50. Provide a value for each of the compounds that follow.
# Measured On: Tissue-type plasminogen activator (Homo sapiens)
# Sequence (P00750 whole entry): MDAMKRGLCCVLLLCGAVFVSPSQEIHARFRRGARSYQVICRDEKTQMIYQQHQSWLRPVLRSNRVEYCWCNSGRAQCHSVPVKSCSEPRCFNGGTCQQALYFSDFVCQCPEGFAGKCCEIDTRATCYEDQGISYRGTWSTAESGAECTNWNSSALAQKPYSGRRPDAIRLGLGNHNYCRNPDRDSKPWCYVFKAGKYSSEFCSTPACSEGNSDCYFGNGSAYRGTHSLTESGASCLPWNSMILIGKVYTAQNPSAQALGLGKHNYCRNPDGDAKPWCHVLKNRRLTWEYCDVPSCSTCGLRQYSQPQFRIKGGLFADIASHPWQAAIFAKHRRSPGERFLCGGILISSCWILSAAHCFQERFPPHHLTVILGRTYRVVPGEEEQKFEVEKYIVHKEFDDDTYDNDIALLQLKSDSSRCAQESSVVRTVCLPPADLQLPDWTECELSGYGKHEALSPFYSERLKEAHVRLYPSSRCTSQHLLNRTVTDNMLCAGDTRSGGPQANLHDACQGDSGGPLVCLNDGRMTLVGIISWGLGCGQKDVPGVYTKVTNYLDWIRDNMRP
Numbers only, in nM.

Smiles Representation	IC50 [nM]
Cc1cc(Oc2nc(O[C@@H](C(=O)O)C(C)(C)C)c(F)cc2F)cc(-c2cccc(CN)c2)c1	470

### Prompt Would you mind telling me what IC50 value was observed for CC[C@@H](Oc1nc(Oc2cccc(-c3cccc(CN)c3)c2)c(F)cc1F)C(=O)O ?
### Response 1600

###

# Measured On: Plasminogen (Homo sapiens)
# Sequence (P00747 97-580 limits assumed): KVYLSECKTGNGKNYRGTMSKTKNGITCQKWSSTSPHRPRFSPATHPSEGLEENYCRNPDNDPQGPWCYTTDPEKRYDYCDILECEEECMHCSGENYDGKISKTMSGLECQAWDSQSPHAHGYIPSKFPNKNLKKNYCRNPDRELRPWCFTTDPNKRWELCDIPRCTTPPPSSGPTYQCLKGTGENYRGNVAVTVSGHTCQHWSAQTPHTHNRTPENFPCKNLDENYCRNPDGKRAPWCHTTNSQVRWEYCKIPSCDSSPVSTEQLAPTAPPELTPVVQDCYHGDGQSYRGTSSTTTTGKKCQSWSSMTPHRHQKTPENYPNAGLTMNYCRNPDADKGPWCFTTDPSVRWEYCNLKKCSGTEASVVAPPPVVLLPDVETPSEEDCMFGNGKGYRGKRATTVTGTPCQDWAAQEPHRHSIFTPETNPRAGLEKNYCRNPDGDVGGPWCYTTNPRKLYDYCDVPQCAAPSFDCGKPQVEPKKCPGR
# Sequence (P00747 581-810 limits assumed): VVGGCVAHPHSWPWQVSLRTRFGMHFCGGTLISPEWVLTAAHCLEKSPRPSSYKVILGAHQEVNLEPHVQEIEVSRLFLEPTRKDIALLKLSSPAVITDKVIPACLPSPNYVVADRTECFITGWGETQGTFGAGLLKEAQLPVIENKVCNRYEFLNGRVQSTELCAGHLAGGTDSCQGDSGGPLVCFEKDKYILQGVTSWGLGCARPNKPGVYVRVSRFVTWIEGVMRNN
# Protocol Notes: Inhibition of human plasmin
Metric: IC50

Smiles Representation	Measured On	Result
C[C@@H](Oc1nc(Oc2cccc(-c3cccc(CN)c3)c2)c(F)cc1F)C(=O)O	Plasminogen (Homo sapiens)	5.1 µM
CC(C)(C)[C@@H](Oc1nc(Oc2cc(C#N)cc(-c3cccc(CN)c3)c2)c(F)cc1F)C(=O)O	Plasminogen (Homo sapiens)	5.4 µM
CC[C@@H](Oc1nc(Oc2cc(C)cc(-c3cccc(CN)c3)c2)c(F)cc1F)C(=O)O	Plasminogen (Homo sapiens)	1.33 µM

### Prompt Requested read-out IC50, target or system Plasminogen (Homo sapiens), entry COc1cc(Oc2nc(O[C@@H](C(=O)O)C(C)(C)C)c(F)cc2F)cc(-c2cccc(CN)c2)c1
### Response 3.32 µM

###

# Protocol Notes: Cmax in rat at 2 mg/kg, po
# Assay type: ADME, organism-based
# Design: dose 2 mg/kg, route oral
# Condition Label: in vivo
Metric: Cmax (ng/mL)
Answers are plain numbers, in ng/mL.

### Prompt Entry under review: CC[C@@H](Oc1nc(Oc2cccc(-c3cccc(CN)c3)c2)c(F)cc1F)C(=O)O . Reported Cmax?
### Response 640
